# Test system: IL-6
# test-summary: IL-6 assay (ELISA) in Ad5-wt-ER infected HAECT-1 cells (IL-1β induced)
# Format: cell-based, human
result-type: IC50
Param answer (str): number followed by unit.

Query: Entry under review: CCC1c2cccn2-c2cc(F)c(F)cc2N1S(=O)(=O)c1ccc(OS(N)(=O)=O)cc1 (centres unmarked) . Reported IC50?
Result: 2 nM

Proceed to the following item.
Query: Entry under review: CCC1c2ccc(F)n2-c2ccc(F)cc2N1S(=O)(=O)c1ccc(O)cc1 (centres unmarked) . Reported IC50?
Result: 6.6 nM

* * *

# System: ER/Nf-kB
# test-summary: ER/NF-κB luciferase reporter assay in Ad5-wt-ER infected HAECT-1 cells (IL-1β induced)
# Type: cell-based, human
result-type: pIC50
Numbers only, as −log10 of the molar value.

Worked set:
Query: Entry under review: CCC1c2cccn2-c2ccc(F)cc2N1S(=O)(=O)c1cc(C)c(O)c(C)c1 (stereo not drawn) [Example 38] . Reported pIC50?
Result: 6.70

Query: What do you get for CCC1c2cccn2-c2ccc(Br)cc2N1S(=O)(=O)c1ccc(O)c(C)c1 (stereo not drawn) [Example 46] ?
Result: 7.21

Query: What do you get for CCC1c2cccn2-c2ccc(F)cc2N1S(=O)(=O)c1ccc(O)c(Cl)c1 (stereo not drawn) [Example 31] ?
Result: 6.44

Query: What do you get for CC1c2cccn2-c2ccc(F)cc2N1S(=O)(=O)c1ccc(O)cc1 (stereo not drawn) [Example 49] ?
Result: 7.17

Query: What do you get for CCC1c2ccc(Br)n2-c2ccc(F)cc2N1S(=O)(=O)c1ccc(O)c(C)c1 (stereo not drawn) [Example 29] ?
Result: 6.23

Provide pIC50 for all items below, preserving their order.
1. CCC1c2cccn2-c2cc(OC)c(F)cc2N1S(=O)(=O)c1ccc(O)cc1 (stereo not drawn) [Example 75]
2. CCC1c2cccn2-c2ccc(C(F)(F)F)cc2N1S(=O)(=O)c1ccc(O)cc1 (stereo not drawn) [Example 56]
3. CCC1c2cccn2-c2ccc(F)cc2N1S(=O)(=O)c1ccc(O)c(C)c1 (stereo not drawn) [Example 19]
4. CC1c2ccc(F)n2-c2cc(F)c(F)cc2N1S(=O)(=O)c1ccc(O)cc1 (stereo not drawn) [Example 13]

Result:
[7.44, 7.10, 7.47, 7.70]

FYI, the data here is from patent US7563793B2.
